- Test System: Adrenergic β2 (Homo sapiens, UniProt P07550)
- Construct: Adherent H292 cells were removed from tissue culture flasks; endogenous in cells; host or cells: H292 cells
- Sequence (P07550 whole entry): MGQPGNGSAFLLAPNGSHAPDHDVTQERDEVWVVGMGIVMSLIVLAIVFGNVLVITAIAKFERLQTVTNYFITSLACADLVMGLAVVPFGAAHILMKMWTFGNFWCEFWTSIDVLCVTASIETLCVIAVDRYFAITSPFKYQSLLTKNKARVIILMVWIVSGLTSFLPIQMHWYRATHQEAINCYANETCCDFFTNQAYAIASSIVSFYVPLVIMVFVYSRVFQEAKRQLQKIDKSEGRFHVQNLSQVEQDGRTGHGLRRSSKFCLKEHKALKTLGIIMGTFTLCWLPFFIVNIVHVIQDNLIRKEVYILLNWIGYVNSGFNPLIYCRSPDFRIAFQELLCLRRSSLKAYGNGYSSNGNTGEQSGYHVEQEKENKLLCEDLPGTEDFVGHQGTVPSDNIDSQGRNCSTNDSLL
- Test Details: Adrenergic β2 mediated cAMP production in H292 cells
- Type: cell-based
- Particulars: Intrinsic Activity as a fraction relative to the maximum activity determined for formoterol
Structures can show the parent of a compound that is named as a salt.
Under this convention, fulfilled denotes β2 Int Act strictly below 0.8 and not fulfilled denotes β2 Int Act at or above 0.8.

Compound | Class Label
CC(C)(CO)CN(CCNCCc1ccc(O)c2[nH]c(=O)sc12)C(=O)CCNCCc1cccc(Cl)c1Cl [Example 67, bis-trifluoroacetic acid salt] | fulfilled
CC(C)(C)CN(CCNCCc1ccc(O)c2[nH]c(=O)sc12)C(=O)CCNCCc1cccc(F)c1 [Example 44, bis-trifluoroacetic acid salt] | fulfilled
O=C(CCNCCc1cccs1)N(CCNCCc1ccc(O)c2[nH]c(=O)sc12)C1CCCCC1 [Example 35, bis-trifluoroacetic acid salt] | not fulfilled
O=C(CCNCCc1ccc(O)cc1)N(CCNCCc1ccc(O)c2[nH]c(=O)sc12)C1CCCCC1 [Example 34, bis-trifluoroacetic acid salt] | fulfilled
O=C(CCNCCc1ccccc1)N(CCNCCc1ccc(O)c2[nH]c(=O)sc12)C1CCCC1 [Example 2, bis-trifluoroacetic acid salt] | not fulfilled

* * *

- Test System: Adrenergic β2 (Homo sapiens)
- Construct: Adherent H292 cells were removed from tissue culture flasks; endogenous in cells; host or cells: H292 cells
- Test Details: Adrenergic β2 mediated cAMP production in H292 cells
- Assay type: cell-based
- Particulars: H292 cells, cAMP by AlphaScreen, 60 minutes at room temperature, rolipram 300 μM; read-out: β2 pEC50 (converted)
Structures can show the parent of a compound that is named as a salt.

Compound | Test System | EC50
CCCC[C@H](C)N(CCNCCc1ccc(O)c2[nH]c(=O)sc12)C(=O)CCNCCc1ccccc1 [Example 102, bis-trifluoroacetic acid salt] | Adrenergic β2 (Homo sapiens) | 79.4 nM
CC(C)(CN(CCNCCc1ccc(O)c2[nH]c(=O)sc12)C(=O)CCNCCc1ccccc1)c1ccccc1 [Example 45, bis-trifluoroacetic acid salt] | Adrenergic β2 (Homo sapiens) | 25.1 nM
Cc1cccc(CCNCCC(=O)N(CCNCCc2ccc(O)c3[nH]c(=O)sc23)C2CCCCCC2)c1 [Example 85, bis-trifluoroacetic acid salt] | Adrenergic β2 (Homo sapiens) | 6.31 nM

* * *

- Test System: recombinant human Dopamine Subtype D2s receptors (Homo sapiens, UniProt P14416)
- Construct: purchased Perkin Elmer
- Sequence (P14416 1-414 isoform P14416-2): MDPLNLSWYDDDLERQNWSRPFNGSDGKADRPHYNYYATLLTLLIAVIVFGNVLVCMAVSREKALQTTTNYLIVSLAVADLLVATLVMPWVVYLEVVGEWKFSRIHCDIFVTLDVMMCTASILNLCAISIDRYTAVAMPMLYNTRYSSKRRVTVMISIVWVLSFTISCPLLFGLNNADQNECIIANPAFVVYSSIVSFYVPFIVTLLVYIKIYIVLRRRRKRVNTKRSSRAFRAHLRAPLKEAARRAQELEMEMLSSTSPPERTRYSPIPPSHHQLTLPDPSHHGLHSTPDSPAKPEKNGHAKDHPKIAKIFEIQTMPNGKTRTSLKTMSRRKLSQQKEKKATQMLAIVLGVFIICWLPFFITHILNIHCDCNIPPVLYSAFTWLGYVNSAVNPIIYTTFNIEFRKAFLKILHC
- Test Details: Dopamine D2 selectivity binding assay ([3H]-spiperone)
- Particulars: inhibition of [3H]-spiperone (0.16 nM) binding; read-out: D2 bind pIC50 (converted)
Where a name gives a salt, the structure may show the parent alone.
Reported IC50 by item:
Assay Endpoint: IC50 (nM)

Compound | Test System | Assay Endpoint | Reading
O=C(CCNCCc1ccc(O)cc1)N(CCNCCc1ccc(O)c2[nH]c(=O)sc12)C1CCCCC1 [Example 34, bis-trifluoroacetic acid salt] | recombinant human Dopamine Subtype D2s receptors (Homo sapiens, UniProt P14416) | IC50 | 398
O=C(CCNCCc1ccc(Cl)cc1)N(CCNCCc1ccc(O)c2[nH]c(=O)sc12)C1CCCCC1 [Example 13, bis-trifluoroacetic acid salt] | recombinant human Dopamine Subtype D2s receptors (Homo sapiens, UniProt P14416) | IC50 | 126
O=C(CCNCCc1ccccc1)N(CCNCCc1ccc(O)c2[nH]c(=O)sc12)C1CCCCCC1 [Example 98, dihydrobromide salt] | recombinant human Dopamine Subtype D2s receptors (Homo sapiens, UniProt P14416) | IC50 | 158
O=C(NCc1ccccc1)c1ccc(CCNCCC(=O)N(CCNCCc2ccc(O)c3[nH]c(=O)sc23)C2CCCCCC2)cc1 [Example 100, bis-trifluoroacetic acid salt] | recombinant human Dopamine Subtype D2s receptors (Homo sapiens, UniProt P14416) | IC50 | 31.6
CC(C)(C)CN(CCNCCc1ccc(O)c2[nH]c(=O)sc12)C(=O)CCNCCc1ccccc1 [Example 6, bis-trifluoroacetic acid salt] | recombinant human Dopamine Subtype D2s receptors (Homo sapiens, UniProt P14416) | IC50 | 200
O=C(CCNCCc1cccc(Cl)c1)N(CCNCCc1ccc(O)c2[nH]c(=O)sc12)C1Cc2ccccc2C1 [Example 42, bis-trifluoroacetic acid salt] | recombinant human Dopamine Subtype D2s receptors (Homo sapiens, UniProt P14416) | IC50 | 100
